This collection of values is drawn from patent US20250171542A1.

# target.under.test: T1, human PD-L1-His (Sino Biological, Cat #10084-H08H) (human, UniProt Q9NZQ7 19-238)
# T1 construct: Bought protein; also called human PD-L1 ECD-His; recombinant human PD-L1-His protein; not shown: His tag
# protocol.details: BLI (Gator), antibody on HFC probe, human PD-L1-His in solution
readout.type: kon (M⁻¹ s⁻¹)
Express it in M⁻¹ s⁻¹; write the number only.

Consider the worked cases shown below.
{"columns": ["binder", "result.units", "meas.value"],
 "data": [
  ["57B10 (antibody, human IgG1, V domains shown) VH: QEQLEESGGGLVQPEGSLTLTCTASGFSFSDDYYMSWVRQAPGKGLEWIASIYTGSLNTYYATWAKGRFTISLTSSTTVTLQMTSLTAADTATYFCARRNKNADWGHFDLWGPGTLVTVSS VL: YDMTQTPASVEVAVGGTVTIKCQASQSISTALAWYQQKPGQPPKLLIYAASTLASGVPSRFRGSGSGTDFTLTISDLECADAATYYCQQGWTVSSLDNAFGGGTEVVAM", "M⁻¹ s⁻¹", 810000],
  ["55H3/76D6 (antibody, human IgG1, V domains shown) VH: QEQLEESGGGLVQPEGSLTLTCTVSGFSFSGDYYMSWVRQAPGKGLEWVASIYTGSLNSYYATWAKGRFTISLTSSTTVTLQMTSLTAADTATYFCARRNKNADYGHFDLWGPGTLVTVSS VL: YDMTQTPASVEVAVGGTVTIKCQASESINDRLAWYQQKPGQPPKLLIYAASTLASGVPSRFRGSGSGTDFTLTISDLECADAATYYCQQGWTVSSLDNAFGGGTEVVAM", "M⁻¹ s⁻¹", 498000]
]}

As a next step, examine the binder that follows.
Query :: Retrieve kon measured for 33E8 (antibody, human IgG1, V domains shown) VH: QSLEESGGDLVKPGASLTLTCTASGFYFSSGYDMSWVRQAPGKGLEWIASIFTTSGSTWYANWAKGRFTISKTSSTTVTLQMTSLTDADTATYFCTKDGVGSFYMNLWGPGTLVTVSS VL: LVMTQTPASVEVAVGGTVTIKCQASQTIGSNLAWYQQRPGQPPKLLIYKAFTLASGVSSRFKGSGSGTQFTLTISGVECADAATYYCQQGATRINIDNAFGGGTEVVVK and print it.
Result :: 361000
